The compounds listed here are annotated with their IC50.
# Tested on: T cell lymphoma Karpas-299 cell line (harboring endogenous NPM-ALK fusion gene)
# assay details: Cell proliferation assay, Karpas-299 cells (CellTiter-Glo)
# Assay type: cell-based
# condition context: Homo sapiens, 72 hours incubation
# Method: Cell Proliferation Assays. Colorectal cell lines KM 12 (harboring endogenous TPM3-TRKA fusion gene) cells were cultured in DMEM medium, supplemented with 10% fetal bovine serum and 100 U/mL of penicillin/streptomycin. 5000 cells were seeded in 384 well white plate for 24 hours before compounds treatment. Cell proliferation was measured using CellTiter-Glo luciferase-based ATP detection assay (Promega) following the manufactures's protocol after 72 hours incubation. […]
experimental readout: IC50 (nM)

[
  {
    "smiles repr": "CNC(=O)[C@@H]1CNC(=O)c2cnn3ccc(nc23)N[C@H](C)c2cc(F)ccc2O1",
    "experimental readout": "IC50",
    "value unit": "nM",
    "relational operator": ">",
    "recorded measurement": 10000
  },
  {
    "smiles repr": "C[C@H]1Nc2ccn3ncc(c3n2)C(=O)NC[C@H](CN(C)C)Oc2ccc(F)cc21",
    "experimental readout": "IC50",
    "value unit": "nM",
    "relational operator": "=",
    "recorded measurement": 2270
  },
  {
    "smiles repr": "CC[C@@H]1CNC(=O)c2cnn3ccc(nc23)N[C@H](C)c2cc(F)ccc2O1",
    "experimental readout": "IC50",
    "value unit": "nM",
    "relational operator": "=",
    "recorded measurement": 16.7
  },
  {
    "smiles repr": "CC(C)(O)[C@H]1Nc2ccn3ncc(c3n2)C(=O)NCCOc2ccc(F)cc21",
    "experimental readout": "IC50",
    "value unit": "nM",
    "relational operator": "=",
    "recorded measurement": 264
  }
]
